Target: hMPV A2 F (human metapneumovirus)
Assay: ELISA on coated recombinant protein, OD 405 nm
endpoint_name: EC50
Please make sure the unit comes right after the number.

Lookup: Could you tell me which EC50 is on file for MPV464 (antibody, V domains shown) VH: QVQLQESGPGLVKPSQTLSLTCTVSGGSVRGGGDYWSWIRRPPGKGLEWIGHIYNSGTTFYNPSLKSRVTISIDTSKNQFSLKLRSVTAADTAVYYCGRVGSRATGLPDWIDPWGQGTLVTVSS VL: SYELTQPPSVSVSPGQTATITCSGTNLGAKYSCWYQQKPGQSPVLVIFQDNKRASGIPARFSASTSGDTATLTISGTQVMDEADYFCQAWDSRTAVFGGGTTLTVL ?
Found: 0.083 µg/mL

Source: patent US20250188153A1
